The reported numbers originate from ChEMBL document CHEMBL2169800.

pIC50: −log10 of the molar value.
Please respond with reported pIC50 for every item in the list.

Input: // fetch Prostaglandin G/H synthase 2 (Homo sapiens) pIC50 for CC(C(=O)O)c1ccc2c3cc(Cl)ccc3n(C(=O)Nc3ccc(Cl)cc3)c2c1 (racemic)
Output: < 4.00

Input: // fetch Prostaglandin G/H synthase 2 (Homo sapiens) pIC50 for CC(C(=O)O)c1ccc2c3cc(Cl)ccc3n(C(=O)c3ccc(F)cc3)c2c1 (racemic)
Output: < 4.00

Input: // fetch Prostaglandin G/H synthase 2 (Homo sapiens) pIC50 for `C[C@@H](C(=O)O)c1ccc2c3cc(Cl)ccc3n(C(=O)c3ccc(Cl)cc3)c2c1`
Output: < 4.00

Input: // fetch Prostaglandin G/H synthase 2 (Homo sapiens) pIC50 for CC(C(=O)Nc1ccccc1)c1ccc2c(c1)[nH]c1ccc(Cl)cc12 (racemic)
Output: < 4.00

Input: // fetch Prostaglandin G/H synthase 2 (Homo sapiens) pIC50 for COc1ccc(C(=O)n2c3ccc(Cl)cc3c3ccc(C(C)C(=O)O)cc32)cc1 (racemic)
Output: < 4.00
